The following variants are shown together with reported abundance fitness values.
B1: POU domain, class 2, transcription factor 1, residues 285 to 354; numbered along this chain, P14859 (parent)
chain: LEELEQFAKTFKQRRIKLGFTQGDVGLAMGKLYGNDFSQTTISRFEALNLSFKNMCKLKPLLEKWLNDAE

Variants of: B1
measurementNotes: abundance fitness (aPCA) (normalised: wild type 0, dead -1); higher = more abundant; growth selection in yeast, the domain comes from the species named
conditionSummary: Homo sapiens
Format: numeric value only, no unit, no commentary.

The following variants have reported results that may help.
mutationSpec | assayMetric | numericReadout
E3P | abundance fitness | -0.569
F20S | abundance fitness | -0.197

Q. Report abundance fitness for `Q39S`
A. 0.015

Q. Kindly indicate its recorded abundance fitness. Item: `D24T`
A. -0.089

Q. Identify the reported abundance fitness for the following entry. `E2I`
A. -0.029

Q. For `T41A` , write its abundance fitness.
A. -0.02

Q. Kindly indicate its recorded abundance fitness. Item: `P60L`
A. -0.074
